EXPERIMENTAL TARGET: NF-κB (human recombinant; p65 subunit used in docking) (Homo sapiens, UniProt Q04206)
Construct: gene RELA; human recombinant NF-κB protein, Sino Biological cat; No. 12054-H09E
ASSAY: microscale thermophoresis with labeled recombinant protein
Format: binding
pKd: −log10 of the molar value.

# COMPOUND, pKd
data = [
    ("COc1cc(C)cc2c(-c3c(O)cc(O)c4c3C[C@@H](C)N[C@@H]4C)cc(-c3cc(-c4c(O)cc(O)c5c4C[C@@H](C)N[C@@H]5C)c4cc(C)cc(OC)c4c3O)c(O)c12 [michellamine B]", 5.55),
]
